Data credit: patent US20250313612A1

- TGT: RSV F protein of recombinant mKate-RSV, subtype A (strain A2) (Respiratory syncytial virus subtype A …, UniProt P03420 26-574)
- EXPERIMENTAL_PROTOCOL: cell-based or functional assay
ENDPOINT_NAME: Neut IC50 subtype A (mg/L)
Report only the number, with the unit mg/L understood.

- BINDER: "ADI-14497 (antibody, V domains shown, full-length IgG (yeast-expressed); also called Antibody Number 58; Ab# 58) VH: QITLKESGPTLVKPTQTLTLTCTFSGFSLTTRGVGVGWIRQPPGKALEFLGFIHWDDDKTYSPSLRRRLTITKDTSNNEVVLTMTNMDPVDTATYYCVHSDLYDSGGYYLYYFDYWGQGTLVTVSS VL: EIVMTQSPSSLSASVGDRVTITCRASQPIPSYVNWYQQRPGKAPKLLIYAASNLQSGVSSKFSGRGFGTDFTLTIDTLQPEDFATYYCQQVYTSPYTFGQGTKLEIK"
  Neut IC50 subtype A / mg/L: 0.115

Here's the next entry for you.
query: Fill in reported Neut IC50 subtype A for this entry: ADI-14449 (antibody, V domains shown, full-length IgG (yeast-expressed); also called Antibody Number 12; Ab# 12) VH: EVQLVESGGDLVKPGGSLRLSCEGSGFIFPNAWMSWVRQAPGKGLEWVGRIKSNTDGGTTDYGAPVKGRFTISRDDSTNTMYLHMNSLKTEDTAVYFCSTGPPYKYFDETGYSVVDYWGQGTLVTVSS VL: SYELTQPPSASGTPGQRVIISCSGSTSNSGYNYFYWYQQRPGTAPKLLIYGSDQRPSGVPDRFSGSQSGPSASLAISGLRSEDEAHYYCAAWDDNLSGPVFGGGTKLTVL
result: 0.193
